subject.of.test: Cathepsin B (Homo sapiens, UniProt P07858)
experiment.notes: Cathepsin IC50, cathepsin B
Type: biochemical
endpoint.name: IC50 (µM)

Answered cases to consult:
compound	subject.of.test	IC50, µM
N#CN1CCC(C(=O)Nc2nnc(-c3ccccc3)s2)C1 (stereo not shown) [F, reference compound]	Cathepsin B (Homo sapiens, UniProt P07858)	9.8
C[C@@H]1C[C@@H](NC(=O)c2nnc(-c3cccc(C#N)c3)o2)CN1C#N [Example 1]	Cathepsin B (Homo sapiens, UniProt P07858)	154
N#CN1CC[C@H](C(=O)Nc2ncc(-c3ccccc3)s2)C1 [E, reference compound]	Cathepsin B (Homo sapiens, UniProt P07858)	5.3

a. COC[C@@H]1C[C@@H](NC(=O)c2nnc(-c3cc(C#N)ccc3OC)o2)CN1C#N [Example 4]
b. N#Cc1cccc(-c2nnc(C(=O)N[C@@H]3C[C@@H](CF)N(C#N)C3)o2)c1 [Example 3]
c. COc1cccc(-c2cc(C(=O)N[C@@H]3CCN(C#N)C3)on2)c1 [A, reference compound]
d. N#CN1CCC(NC(=O)c2cc(-c3cccc(Cl)c3)no2)C1 (stereo not shown) [B, reference compound]
Asked: Rank descending by IC50. Please reply with the labels ordered as requested. Many thanks.
Given back: a, b, c, d
(a: 111 µM, b: 29.4 µM, c: 4.5 µM, d: 2.9 µM)
